tested_target: cGMP-inhibited 3',5'-cyclic phosphodiesterase 3B [387-1112] (Homo sapiens, UniProt Q13370)
Construct: 387-1112
Sequence (Q13370 387-1112): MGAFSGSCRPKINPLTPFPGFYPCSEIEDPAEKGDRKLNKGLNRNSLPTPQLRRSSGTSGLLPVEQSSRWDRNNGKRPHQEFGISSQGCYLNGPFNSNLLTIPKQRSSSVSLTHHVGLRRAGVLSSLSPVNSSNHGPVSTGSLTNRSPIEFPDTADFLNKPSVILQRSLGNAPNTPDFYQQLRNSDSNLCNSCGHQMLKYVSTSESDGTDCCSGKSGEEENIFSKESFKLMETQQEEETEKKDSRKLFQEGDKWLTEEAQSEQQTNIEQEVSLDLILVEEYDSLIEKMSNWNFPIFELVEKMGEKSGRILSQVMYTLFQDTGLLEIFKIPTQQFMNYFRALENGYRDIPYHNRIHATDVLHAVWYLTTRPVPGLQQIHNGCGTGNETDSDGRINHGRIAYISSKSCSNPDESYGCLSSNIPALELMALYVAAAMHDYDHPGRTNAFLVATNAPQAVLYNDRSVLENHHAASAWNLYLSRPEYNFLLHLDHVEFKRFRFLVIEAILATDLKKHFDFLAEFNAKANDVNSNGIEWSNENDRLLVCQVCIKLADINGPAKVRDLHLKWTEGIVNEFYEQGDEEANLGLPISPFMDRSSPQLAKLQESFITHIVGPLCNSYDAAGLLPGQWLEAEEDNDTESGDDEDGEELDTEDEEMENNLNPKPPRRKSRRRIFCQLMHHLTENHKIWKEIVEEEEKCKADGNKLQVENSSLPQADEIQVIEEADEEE
protocol_details: PDE SPA Enzyme Inhibition Assay
Experimental: PDE activity was monitored by measuring the hydrolysis of [3H]-cAMP to [3H]-AMP using scintillation proximity assay (SPA). [3H]-AMP was captured by the SPA beads, and quantified on a TopCount plate reader. Data was analyzed in Graph Pad Prism software.
measurement_label: IC50 (nM)
# unit: nM | format: bare number

Worked examples follow.
compound | scale_unit | IC50
CC1(C)C(=O)NN=C1c1ccc(NC2=C(Cc3cccc(C#N)c3)C(=O)CCC2)c(F)c1F | nM | 0.33
Cc1cc(C2=NNC(=O)CC2C)ccc1NC1=C(Cc2ccccc2)C(=O)CCC1 (stereo not drawn) | nM | 0.61

Next:
// IC50 value for CC1CC(=O)NN=C1c1ccc(NC2=C(Cc3ccccc3)C(=O)CCC2)c(F)c1 (stereo not drawn) : 0.26

###

Hi! I'm sharing some IC50 results obtained with cGMP-inhibited 3',5'-cyclic phosphodiesterase 3A [388-1112] (Homo sapiens, UniProt Q14432).
Sequence (Q14432 388-1112): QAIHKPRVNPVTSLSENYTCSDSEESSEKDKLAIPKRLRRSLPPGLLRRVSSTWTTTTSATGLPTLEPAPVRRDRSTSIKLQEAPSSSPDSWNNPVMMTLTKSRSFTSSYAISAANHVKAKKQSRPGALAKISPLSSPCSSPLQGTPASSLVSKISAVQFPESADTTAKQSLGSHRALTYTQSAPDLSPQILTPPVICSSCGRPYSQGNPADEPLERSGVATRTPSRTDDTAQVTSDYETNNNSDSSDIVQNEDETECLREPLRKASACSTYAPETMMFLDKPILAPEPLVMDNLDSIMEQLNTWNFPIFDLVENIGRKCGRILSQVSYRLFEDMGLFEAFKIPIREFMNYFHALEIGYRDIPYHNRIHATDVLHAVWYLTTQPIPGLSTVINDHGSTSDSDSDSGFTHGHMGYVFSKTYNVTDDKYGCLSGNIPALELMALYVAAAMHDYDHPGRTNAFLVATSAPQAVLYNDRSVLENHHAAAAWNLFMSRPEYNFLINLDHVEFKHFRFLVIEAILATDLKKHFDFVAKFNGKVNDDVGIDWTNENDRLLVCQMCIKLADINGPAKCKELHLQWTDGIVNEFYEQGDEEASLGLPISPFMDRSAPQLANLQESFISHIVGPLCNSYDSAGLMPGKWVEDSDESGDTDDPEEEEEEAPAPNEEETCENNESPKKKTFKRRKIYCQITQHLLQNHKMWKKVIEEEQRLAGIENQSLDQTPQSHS
Output should be the measured figure followed by the unit it is expressed in.

Worked examples follow.
compound | IC50
CC1(C)C(=O)NN=C1c1ccc(NC2=C(Cc3cccc(C#N)c3)C(=O)CCC2)c(F)c1F | 7.6 nM
C[C@@H]1CC(=O)NN=C1c1ccc(NC2=C(Cc3cccc(-c4ccsc4)c3)C(=O)CCC2)cc1 | 0.11 nM
CC1CC(=O)NN=C1c1ccc(NC2=C(Cc3ccccc3)C(=O)CCC2)c(F)c1 (centres undefined) | 1.2 nM

Next:
The observed IC50 for Cc1cc(C2=NNC(=O)CC2C)ccc1NC1=C(Cc2ccccc2)C(=O)CCC1 (centres undefined) when tested with cGMP-inhibited 3',5'-cyclic phosphodiesterase 3A [388-1112] (Homo sapiens, UniProt Q14432) stands at 3.7 nM

###

tested_target: cGMP-inhibited 3',5'-cyclic phosphodiesterase 3B [387-1112] (Homo sapiens, UniProt Q13370)
Construct: 387-1112
protocol_details: PDE SPA Enzyme Inhibition Assay
reported_conditions: pH 7.5; 22 °C
Below, each entry is listed alongside its reported IC50.
# unit: nM | format: bare number

smiles_notation | numeric_result
C[C@@H]1CC(=O)NN=C1c1ccc(NC2=C(Cc3cccc(-c4cccc([N+](=O)[O-])c4)c3)C(=O)CCC2)cc1 | 0.049

// IC50 value for `C[C@@H]1CC(=O)NN=C1c1ccc(NC2=C(Cc3cccc(-c4ccsc4)c3)C(=O)CCC2)cc1` : 0.068
